- Target Entity: MNK2a (Homo sapiens)
- Assay Info: MNK2a in vitro kinase assay (assay 1), ADP-Glo
- Study Conditions: preactivated GST-MNK2a, 20 μM ATP, read-out: MNK2 IC50
pIC50: −log10 of the molar value.
Property Name: pIC50

>>> print(df.to_string())
                                   molecule  property_name  value_reported
0  CCO[C@@H]1CO[C@H]2[C@@H]1OC[C@H]2Oc1cc(F)ccc1Nc1ncnc2cc(N=S3(=O)CCCC3)cc(C)c12          pIC50            9.00
1  COC1CS(=O)(=Nc2cc(C)c3c(Nc4ccc(F)cc4O[C@@H]4CO[C@@H]5CCO[C@@H]54)ncnc3c2)C1 (stereo partly drawn)          pIC50            8.70
2  CO[C@@H]1CO[C@H]2[C@@H]1OC[C@H]2Oc1cc(F)ccc1Nc1ncnc2cc(N=S(C)(C)=O)cc(OCCF)c12          pIC50            8.70
3  O=S1(=Nc2cc(Cl)c3c(Nc4ccc(F)cc4O[C@@H]4CO[C@@H]5CCO[C@@H]54)ncnc3c2)CCC1          pIC50            9.00
4  Cc1cc(N=S(C)(=O)C(C)(C)C)cc2ncnc(Nc3ccc(F)cc3O[C@@H]3CO[C@@H]4CCO[C@@H]43)c12 (stereo partly drawn)          pIC50            8.52
5  CCOc1cc(N=S(C)(C)=O)cc2ncnc(Nc3ccc(F)cc3O[C@@H]3CO[C@H]4[C@@H]3OC[C@H]4OC)c12          pIC50            8.70

---

- Target Entity: MNK2a (Homo sapiens)
- Assay Info: MNK2a in vitro kinase assay (assay 1), ADP-Glo
- Study Conditions: preactivated GST-MNK2a, 20 μM ATP, read-out: MNK2 IC50
Quick rule for you: IC50 under 3 nM gets YES, anything else gets NO.

In [3]: df
Out[3]:
                                    compound  classification
 0  Cc1cc(N=S(C)(C)=O)cc2ncnc(Nc3ccc(F)cc3O[C@@H]3CO[C@H]4[C@@H]3OC[C@H]4O)c12 [Example 1.18]             YES
 1  Cc1cc(N=S2(=O)CCC2)cc2ncnc(Nc3ccc(F)cc3O[C@@H]3CO[C@@H]4CCO[C@@H]43)c12 [Example 2.106]             YES
 2  COc1cc(N=S(C)(C)=O)cc2ncnc(Nc3ccc(F)cc3O[C@@H]3CO[C@H]4[C@@H]3OC[C@H]4OC)c12 [Example 2.1]             YES
 3  Cc1cc(N=S(C)(C)=O)cc2ncnc(Nc3cccnc3O[C@H]3CC[C@H](N)CC3)c12 [Example 3.2]              NO
 4  Cc1cc(N=S2(=O)CCOCC2)cc2ncnc(Nc3ccc(F)cc3O[C@@H]3CO[C@H]4[C@@H]3OC[C@H]4O)c12 [Example 2.2]              NO
 5  CCOc1cc(N=S(C)(C)=O)cc2ncnc(Nc3ccc(F)cc3O[C@H]3CC[C@H](OC)CC3)c12 [Example 5.4]              NO
 6  CO[C@H]1CC[C@H](Oc2ncccc2Nc2ncnc3cc(N=S(C)(C)=O)cc(F)c23)CC1 [Example 2.49]              NO
 7  CS(C)(=O)=Nc1cc(Cl)c2c(Nc3ccc(F)cc3O[C@@H]3CO[C@@H]4CCO[C@@H]43)ncnc2c1 [Example 1.4]             YES
 8  Cc1cc(N=S(C)(C)=O)cc2ncnc(Nc3ccc(F)cc3O[C@@H]3CCCC[C@H]3F)c12 [Example 7.17]             YES
 9  CS(C)(=O)=Nc1cc(F)c2c(Nc3ccc(F)cc3O[C@@H]3CCN(CCO)C3)ncnc2c1 [Example 6.15]              NO
10  Cc1cc(N=S(C)(C)=O)cc2ncnc(Nc3ccc(F)cc3OC3(C)CCC3)c12 [Example 1.29]             YES

---

- Target Entity: MNK2a (Homo sapiens, UniProt Q9HBH9)
- Sequence (Q9HBH9 whole entry): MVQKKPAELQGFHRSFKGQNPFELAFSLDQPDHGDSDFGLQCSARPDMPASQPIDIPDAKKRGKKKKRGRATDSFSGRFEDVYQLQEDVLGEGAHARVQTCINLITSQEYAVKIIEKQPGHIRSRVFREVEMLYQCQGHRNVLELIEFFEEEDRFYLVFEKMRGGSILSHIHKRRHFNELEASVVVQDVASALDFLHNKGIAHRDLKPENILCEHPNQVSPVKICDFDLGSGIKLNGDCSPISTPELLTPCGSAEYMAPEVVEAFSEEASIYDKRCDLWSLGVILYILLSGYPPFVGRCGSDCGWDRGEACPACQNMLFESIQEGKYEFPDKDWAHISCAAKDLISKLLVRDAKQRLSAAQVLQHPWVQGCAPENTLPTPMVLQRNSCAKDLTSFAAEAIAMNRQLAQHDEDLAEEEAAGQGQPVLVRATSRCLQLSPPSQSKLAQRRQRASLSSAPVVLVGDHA
- Assay Info: MNK2a in vitro kinase assay (assay 1), ADP-Glo
- Study Conditions: preactivated GST-MNK2a, 20 μM ATP, read-out: MNK2 IC50
- Experimental: A. MNK2a In Vitro Kinase Assay (Assay 1) ASSAY SETUP: The inhibition of kinase activity of MNK2a was assessed using preactivated GST-MNK2a. The white, 384-well OptiPlate F plates were purchased from Perkin Elmer. […] The plates are sealed and after an incubation period of 30 min, the luminescence signal is measured in an Envision reader to determine the amount of produced ADP. […] IC50 values based on dose response curves are calculated with the AssayExplorer software.
Reported IC50 is given for each of the following compounds.
Property Name: IC50 (nM)

In [3]: df
Out[3]:
                               input_smiles  result_units  value_reported
0  CO[C@H]1CC[C@H](Oc2cc(F)ccc2Nc2ncnc3cc(N=S4(=O)CCOCC4)cc(F)c23)CC1            nM              11
1  Cc1cc(N=S2(=O)CCNCC2)cc2ncnc(Nc3ccc(F)cc3O[C@@H]3CO[C@H]4[C@@H]3OC[C@H]4O)c12            nM               5
2  Cc1cc(N=S(C)(C)=O)cc2ncnc(Nc3cccnc3O[C@@H]3CCCN(CCO)C3)c12            nM               8
3  O=S1(=Nc2cc(Cl)c3c(Nc4ccc(F)cc4O[C@H]4CCOC4)ncnc3c2)CCCC1            nM               1
4  Cc1cc(N=S(C)(C)=O)cc2ncnc(Nc3cccnc3O[C@@H]3CCCN(C(=O)OC(C)(C)C)C3)c12            nM              52
5  Cc1cc(N=S2(=O)CCCC2)cc2ncnc(Nc3ccc(F)cc3O[C@@H]3CO[C@H]4[C@@H]3OC[C@@H]4F)c12            nM               1
6  CS(C)(=O)=Nc1cc(F)c2c(Nc3ccc(F)cc3O[C@@H]3CCN(CC(F)F)C3)ncnc2c1            nM               7

---

Reported inhibition at 1 µM is given for each of the following compounds.
- Target Entity: MNK1a (Homo sapiens, UniProt Q9BUB5)
- Sequence (Q9BUB5 1-424 isoform Q9BUB5-2): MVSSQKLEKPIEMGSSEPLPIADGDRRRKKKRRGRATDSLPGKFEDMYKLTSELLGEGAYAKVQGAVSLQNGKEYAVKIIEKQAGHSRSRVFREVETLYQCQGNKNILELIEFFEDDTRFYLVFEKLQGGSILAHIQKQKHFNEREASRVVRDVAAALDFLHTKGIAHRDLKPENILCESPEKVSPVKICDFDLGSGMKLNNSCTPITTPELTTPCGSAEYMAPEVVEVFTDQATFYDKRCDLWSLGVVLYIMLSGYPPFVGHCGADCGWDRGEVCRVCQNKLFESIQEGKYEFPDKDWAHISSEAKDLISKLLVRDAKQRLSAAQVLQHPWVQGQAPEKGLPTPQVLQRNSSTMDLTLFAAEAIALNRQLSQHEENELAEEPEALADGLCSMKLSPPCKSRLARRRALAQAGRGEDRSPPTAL
- Assay Info: MNK1 in vitro kinase assay (assay 2), Z'-LYTE
- Type: biochemical
- Study Conditions: compound concentration of 1 μM
Property Name: inhibition at 1 µM (%)

In [3]: df
Out[3]:
                                   compound  value_reported
0  Cc1cc(N=S(C)(C)=O)cc2ncnc(Nc3cccnc3O[C@@H]3CCCN(CCO)C3)c12 [Example 6.10]              89
1  Cc1cc(N=S(C)(=O)C2CC2)cc2ncnc(Nc3ccc(F)cc3O[C@@H]3CO[C@@H]4CCO[C@@H]43)c12 (stereo partly shown) [Example 2.114]              96
2  Cc1cc(N=S(C)(=O)c2ccccn2)cc2ncnc(Nc3ccc(F)cc3O[C@H]3CCOC3)c12 (stereo partly shown) [Example 2.38]              82
3  Cc1cc(N=S(C)(=O)C(C)(C)C#N)cc2ncnc(Nc3ccc(F)cc3O[C@H]3CCOC3)c12 (stereo partly shown) [Example 2.111]              89
4  Cc1cc(N=S(C)(C)=O)cc2ncnc(Nc3ccc(F)cc3O[C@@H]3CCCN(C(=O)OC(C)(C)C)C3)c12 [Example 2.27]              78
5  Cc1cc(N=S2(=O)CCCC2)cc2ncnc(Nc3ccc(F)cc3O[C@H]3CC[C@H](O)CC3)c12 [Example 2.40]             100
6  CS(C)(=O)=Nc1cc(C2CC2)c2c(Nc3ccc(F)cc3O[C@H]3CCOC3)ncnc2c1 [Example 1.15]              95

---

- Target Entity: UniProt:Q9BUB5
- Assay Info: MNK1 in vitro kinase assay (assay 2), Z'-LYTE
- Format: biochemical
- Study Conditions: compound concentration of 1 μM
Reported inhibition at 1 µM is given for each of the following compounds.
Property Name: inhibition at 1 µM (%)

>>> df
                                   compound       property_name  value_reported
0  Cc1cc(N=S(C)(=O)C(C)(C)C)cc2ncnc(Nc3ccc(F)cc3O[C@H]3CCOC3)c12 (stereo partly shown)  inhibition at 1 µM              89
1  CS(C)(=O)=Nc1cc(F)c2c(Nc3ccc(F)cc3O[C@@H]3CCCNC3)ncnc2c1  inhibition at 1 µM              79
2  Cc1cc(N=S(C)(C)=O)cc2ncnc(Nc3cccnc3O[C@H]3CC[C@H](NC(=O)OC(C)(C)C)CC3)c12  inhibition at 1 µM              92
3  CS(C)(=O)=Nc1cc(OC2CC2)c2c(Nc3ccc(F)cc3O[C@H]3CCOC3)ncnc2c1  inhibition at 1 µM              66
4  Cc1cc(N=S2(=O)CCCC2)cc2ncnc(Nc3ccc(F)cc3O[C@@H]3CCNC3)c12  inhibition at 1 µM              92
5  COCCS(C)(=O)=Nc1cc(C)c2c(Nc3ccc(F)cc3O[C@H]3CC[C@H](OC)CC3)ncnc2c1 (stereo partly shown)  inhibition at 1 µM              79
6  CS(C)(=O)=Nc1cc(F)c2c(Nc3ccc(F)cc3O[C@@H]3CCCN(Cc4ncon4)C3)ncnc2c1  inhibition at 1 µM              91
